test system: Escherichia coli TOP10; test: shrunken log2 fold change of peptide-encoding DNA abundance (4.5 h post-induction vs induction); higher = less antimicrobial activity (less host growth inhibition); details: time post-induction: 4.5 h; library: site-saturation at positions 5, 18, 19, 20
// values below are reported shrunken log2 fold change

Ask: Write down measured shrunken log2 fold change (Escherichia coli TOP10) for this sequence. `RRIRCRPPRLPRPRPRPHKCPRP`
Result: -0.721

Ask: Write down measured shrunken log2 fold change (Escherichia coli TOP10) for this sequence. `RRIRKRPPRLPRPRPRPFPFPRP`
Result: -0.255

Ask: Write down measured shrunken log2 fold change (Escherichia coli TOP10) for this sequence. `RRIRCRPPRLPRPRPRPDGGPRP`
Result: 0.196

Ask: Write down measured shrunken log2 fold change (Escherichia coli TOP10) for this sequence. `RRIRKRPPRLPRPRPRPQQRPRP`
Result: 0.0562

Ask: Write down measured shrunken log2 fold change (Escherichia coli TOP10) for this sequence. `RRIRDRPPRLPRPRPRPQFEPRP`
Result: 0.0888

---

system: Escherichia coli TOP10; test: shrunken log2 fold change of peptide-encoding DNA abundance (4.5 h post-induction vs induction); higher = less antimicrobial activity (less host growth inhibition); conditions: time post-induction: 4.5 h; library: site-saturation at positions 5, 18, 19, 20
outcome-measure: shrunken log2 fold change
Please state the value as a number alone, without comment.

input-sequence	outcome-measure	measured
RRIRQRPPRLPRPRPRPPIGPRP	shrunken log2 fold change	2.89

Ask: Note shrunken log2 fold change for the sequence shown: `RRIRCRPPRLPRPRPRPSGPPRP`
Result: 0.124

Ask: Note shrunken log2 fold change for the sequence shown: `RRIRQRPPRLPRPRPRPKTRPRP`
Result: 0.247

---

// values below are reported shrunken log2 fold change
test system: Escherichia coli TOP10; experiment: shrunken log2 fold change of peptide-encoding DNA abundance (4.5 h post-induction vs induction); higher = less antimicrobial activity (less host growth inhibition); conditions: time post-induction: 4.5 h; library: site-saturation at positions 5, 18, 19, 20
Please state the value as a number alone, without comment.

Sample answers from the record:
input-sequence	shrunken log2 fold change
RRIRMRPPRLPRPRPRPGNIPRP	-0.115
RRIRIRPPRLPRPRPRPLCLPRP	-0.736
RRIRFRPPRLPRPRPRPGLRPRP	0.23
RRIRDRPPRLPRPRPRPKAHPRP	0.0408
RRIRSRPPRLPRPRPRPQTVPRP	-0.26
RRIRVRPPRLPRPRPRPRFAPRP	0.527
RRIRSRPPRLPRPRPRPSGCPRP	0.208

Ask: Note shrunken log2 fold change for the sequence shown: `RRIRPRPPRLPRPRPRPFVFPRP`
Result: -0.2

---

test system: Escherichia coli TOP10; experiment: shrunken log2 fold change of peptide-encoding DNA abundance (4.5 h post-induction vs induction); higher = less antimicrobial activity (less host growth inhibition); settings: time post-induction: 4.5 h; library: site-saturation at positions 5, 18, 19, 20
Categories are assigned from the measured shrunken log2 fold change using these intervals: bottom bin: < -0.08; middle bin: ≥ -0.08 and < 0.03; top bin: ≥ 0.03

Solved entries (count: 5):
input-sequence	category-label
RRIRRRPPRLPRPRPRPGRPPRP	top bin
RRIRNRPPRLPRPRPRPYDIPRP	middle bin
RRIRNRPPRLPRPRPRPRSMPRP	bottom bin
RRIRKRPPRLPRPRPRPIRKPRP	top bin
RRIRLRPPRLPRPRPRPSFAPRP	middle bin

Ask: Bin this entry: `RRIRYRPPRLPRPRPRPMTDPRP`
Result: middle bin

Ask: Bin this entry: `RRIRTRPPRLPRPRPRPFMGPRP`
Result: middle bin

Ask: Bin this entry: `RRIRYRPPRLPRPRPRPTVMPRP`
Result: bottom bin

Ask: Bin this entry: `RRIRERPPRLPRPRPRPMGFPRP`
Result: top bin

---

// values below are reported shrunken log2 fold change
tested on: Escherichia coli TOP10; test: shrunken log2 fold change of peptide-encoding DNA abundance (4.5 h post-induction vs induction); higher = less antimicrobial activity (less host growth inhibition); details: time post-induction: 4.5 h; library: site-saturation at positions 5, 18, 19, 20
Please state the value as a number alone, without comment.

Sample answers from the record:
input-sequence	target-desc	shrunken log2 fold change
RRIRRRPPRLPRPRPRPCAKPRP	Escherichia coli TOP10	0.164
RRIRCRPPRLPRPRPRPLQCPRP	Escherichia coli TOP10	-0.279
RRIRCRPPRLPRPRPRPHSVPRP	Escherichia coli TOP10	-0.613
RRIRPRPPRLPRPRPRPFSHPRP	Escherichia coli TOP10	-0.402
RRIRARPPRLPRPRPRPVIEPRP	Escherichia coli TOP10	0.362
RRIRERPPRLPRPRPRPVYRPRP	Escherichia coli TOP10	-0.514
RRIRYRPPRLPRPRPRPRVLPRP	Escherichia coli TOP10	-0.322
RRIRTRPPRLPRPRPRPSCKPRP	Escherichia coli TOP10	-0.885
RRIRSRPPRLPRPRPRPILVPRP	Escherichia coli TOP10	0.0112
RRIRNRPPRLPRPRPRPNLHPRP	Escherichia coli TOP10	-0.728

Next up:
Ask: Note shrunken log2 fold change for the sequence shown: `RRIRGRPPRLPRPRPRPFFSPRP`
Result: 0.125

---

test system: Escherichia coli TOP10; experiment: shrunken log2 fold change of peptide-encoding DNA abundance (4.5 h post-induction vs induction); higher = less antimicrobial activity (less host growth inhibition); conditions: time post-induction: 4.5 h; library: site-saturation at positions 5, 18, 19, 20
outcome-measure: shrunken log2 fold change

input-sequence	outcome-measure	measured
RRIRQRPPRLPRPRPRPMMVPRP	shrunken log2 fold change	-0.0145
RRIRCRPPRLPRPRPRPRGQPRP	shrunken log2 fold change	-0.0954
RRIRDRPPRLPRPRPRPPKDPRP	shrunken log2 fold change	0.314

Ask: Note shrunken log2 fold change for the sequence shown: `RRIRRRPPRLPRPRPRPSPRPRP`
Result: 1.03

Ask: Note shrunken log2 fold change for the sequence shown: `RRIRLRPPRLPRPRPRPMLNPRP`
Result: -0.423

Ask: Note shrunken log2 fold change for the sequence shown: `RRIRMRPPRLPRPRPRPRWTPRP`
Result: 0.548

Ask: Note shrunken log2 fold change for the sequence shown: `RRIRMRPPRLPRPRPRPTVQPRP`
Result: -0.0862

Ask: Note shrunken log2 fold change for the sequence shown: `RRIRQRPPRLPRPRPRPFETPRP`
Result: -0.232

Ask: Note shrunken log2 fold change for the sequence shown: `RRIRKRPPRLPRPRPRPPTHPRP`
Result: 0.42

Ask: Note shrunken log2 fold change for the sequence shown: `RRIRVRPPRLPRPRPRPCCIPRP`
Result: -0.0914

Ask: Note shrunken log2 fold change for the sequence shown: `RRIRKRPPRLPRPRPRPEHQPRP`
Result: 0.163

Ask: Note shrunken log2 fold change for the sequence shown: `RRIRKRPPRLPRPRPRPHWVPRP`
Result: -0.0562

Ask: Note shrunken log2 fold change for the sequence shown: `RRIRERPPRLPRPRPRPVGCPRP`
Result: 0.168

---

tested on: Escherichia coli TOP10; test: shrunken log2 fold change of peptide-encoding DNA abundance (4.5 h post-induction vs induction); higher = less antimicrobial activity (less host growth inhibition); details: time post-induction: 4.5 h; library: site-saturation at positions 5, 18, 19, 20
# if value of shrunken log2 fold change reaches -0.1, tag Fulfilled; if it stays below, tag Not fulfilled

Solved entries (count: 3):
input-sequence	category-label
RRIRERPPRLPRPRPRPPFHPRP	Not fulfilled
RRIRQRPPRLPRPRPRPKIPPRP	Fulfilled
RRIRWRPPRLPRPRPRPPHIPRP	Fulfilled

Ask: // inclusive: shrunken log2 fold change at least -0.1? input: `RRIRRRPPRLPRPRPRPGMWPRP`
Result: Fulfilled

Ask: // inclusive: shrunken log2 fold change at least -0.1? input: `RRIRARPPRLPRPRPRPWFPPRP`
Result: Fulfilled

Ask: // inclusive: shrunken log2 fold change at least -0.1? input: `RRIRLRPPRLPRPRPRPYDHPRP`
Result: Not fulfilled

Ask: // inclusive: shrunken log2 fold change at least -0.1? input: `RRIRIRPPRLPRPRPRPLPDPRP`
Result: Fulfilled

Ask: // inclusive: shrunken log2 fold change at least -0.1? input: `RRIRLRPPRLPRPRPRPMMIPRP`
Result: Not fulfilled

---

tested on: Escherichia coli TOP10; experiment: shrunken log2 fold change of peptide-encoding DNA abundance (4.5 h post-induction vs induction); higher = less antimicrobial activity (less host growth inhibition); settings: time post-induction: 4.5 h; library: site-saturation at positions 5, 18, 19, 20;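 note: peptides expressed intracellularly from a pBAD plasmid library in pooled LB shake-flask culture, induced with 0.3% L-arabinose, DNA abundance read by NGS, three biological replicates, DESeq2 with apeglm shrinkage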
# if value of shrunken log2 fold change reaches -0.08, tag Met; if it stays below, tag Not met

Solved entries (count: 5):
input-sequence	category-label
RRIRARPPRLPRPRPRPHRVPRP	Not met
RRIRIRPPRLPRPRPRPYCPPRP	Not met
RRIRHRPPRLPRPRPRPKSTPRP	Not met
RRIRIRPPRLPRPRPRPPRGPRP	Met
RRIRFRPPRLPRPRPRPCGKPRP	Met

We next turn to a different sequence, shown below.
Ask: // inclusive: shrunken log2 fold change at least -0.08? input: `RRIRQRPPRLPRPRPRPEWTPRP`
Result: Met
